Ref: ChEMBL document CHEMBL3259664

- test method notes: Metabolic stability in human liver microsomes assessed as compound remaining measured at […]
- Type: ADME
- measurement context: read-out: Stability
Please use the following remaining ranges when assigning a class: one = under 80%, two = from 80% up to 90%, three = 90% and over

Fc1cccnc1Nc1ccc(-c2cnc3ccc(N[C@H]4CC[C@H](N5CCCC5)CC4)nn23)cn1: one

**Q:** State the class of the compound shown: CN1CCC(Nc2ccc3ncc(-c4ccc(Nc5ncccc5F)nc4)n3n2)CC1
**A:** one

**Q:** State the class of the compound shown: Fc1cccnc1Nc1ccc(-c2cnc3ccc(N[C@H]4CC[C@H](N5CCCC5)CC4)nn23)cc1
**A:** one

**Q:** State the class of the compound shown: N[C@H]1CC[C@H](Nc2ccc3ncc(-c4cnc(Nc5ccccn5)nc4)n3n2)CC1
**A:** three

**Q:** State the class of the compound shown: CN1CCC(Nc2ccc3ncc(-c4ccc(Nc5ncc(Cl)cc5F)cc4)n3n2)CC1
**A:** two

**Q:** State the class of the compound shown: N[C@H]1CC[C@H](Nc2ccc3ncc(-c4ccc(Nc5ncc(Cl)cc5F)cc4)n3n2)CC1
**A:** one

**Q:** State the class of the compound shown: N[C@H]1CC[C@H](Nc2ccc3ncc(-c4cnc(Nc5ncccc5F)nc4)n3n2)CC1
**A:** three

**Q:** State the class of the compound shown: N[C@H]1CC[C@H](Nc2ccc3ncc(-c4ccc(Nc5ncc(F)cc5F)cc4)n3n2)CC1
**A:** one

**Q:** State the class of the compound shown: Cc1ccc(F)c(Nc2ccc(-c3cnc4ccc(N[C@H]5CC[C@H](N)CC5)nn34)cc2)n1
**A:** two

**Q:** State the class of the compound shown: N[C@H]1CC[C@H](Nc2ccc3ncc(-c4cnc(Nc5ncc(C(F)(F)F)cc5F)nc4)n3n2)CC1
**A:** one

**Q:** State the class of the compound shown: N[C@H]1CC[C@H](Nc2ccc3ncc(-c4cnc(NCc5ccccn5)nc4)n3n2)CC1
**A:** three

**Q:** State the class of the compound shown: Cc1ccc(F)c(Nc2ccc(-c3cnc4ccc(NC5CCN(C)CC5)nn34)cc2)n1
**A:** one

* * *

// values below are reported logD
- test method notes: Lipophilicity, log D of the compound
- Assay type: physicochemical
- measurement context: octanol/water
Lab note: jot the number down without any unit.

Solved entries (count: 6):
CN1CCC(Nc2ccc3ncc(-c4ccc(Nc5ncc(Cl)cc5F)cc4)n3n2)CC1: 3.7
CN1CCC(Cc2ccc3ncc(-c4cnc(Nc5ncccc5F)nc4)n3n2)CC1: 1.3
N[C@H]1CC[C@H](Nc2ccc3ncc(-c4cnc(NCc5ccccn5)nc4)n3n2)CC1: 0.4
Cc1ccc(F)c(Nc2ccc(-c3cnc4ccc(N[C@H]5CC[C@H](N)CC5)nn34)cc2)n1: 2.2
CN1CCC(Nc2ccc3ncc(-c4ccc(Nc5cccc(C(F)(F)F)n5)cc4)n3n2)CC1: 3.4
CN1CCC(Nc2ccc3ncc(-c4ccc(Nc5ncccc5F)nc4)n3n2)CC1: 3.1

**Q:** Report logD, nothing else, for this molecule: Fc1cccnc1Nc1ncc(-c2cnc3ccc(NCCN4CCCC4)nn23)cn1
**A:** 1.5

**Q:** Report logD, nothing else, for this molecule: CN1CCC(Oc2ccc3ncc(-c4cnc(Nc5ncccc5F)nc4)n3n2)C1 (racemic)
**A:** 1.5

**Q:** Report logD, nothing else, for this molecule: CN1CCN(CCNc2ccc3ncc(-c4cnc(Nc5ncccc5F)nc4)n3n2)CC1
**A:** 1.6

**Q:** Report logD, nothing else, for this molecule: Fc1cccnc1Nc1ncc(-c2cnc3ccc(NC4CCNC4)nn23)cn1 (racemic)
**A:** 0.4

**Q:** Report logD, nothing else, for this molecule: CN1CCC(Nc2ccc3ncc(-c4cnc(Nc5ncccc5F)nc4)n3n2)CC1
**A:** 1.4

**Q:** Report logD, nothing else, for this molecule: Cc1ccc(Nc2ncc(-c3cnc4ccc(N[C@H]5CC[C@H](N)CC5)nn34)cn2)nc1
**A:** 1.1

**Q:** Report logD, nothing else, for this molecule: Fc1cccnc1Nc1ncc(-c2cnc3ccc(N[C@H]4CC[C@H](N5CCOCC5)CC4)nn23)cn1
**A:** 3.2

**Q:** Report logD, nothing else, for this molecule: Fc1cccnc1Nc1ncc(-c2cnc3ccc(NCCN4CCOCC4)nn23)cn1
**A:** 2.9

**Q:** Report logD, nothing else, for this molecule: Fc1cccnc1Nc1ncc(-c2cnc3ccc(N4CCNCC4)nn23)cn1
**A:** 0.7

**Q:** Report logD, nothing else, for this molecule: N[C@H]1CC[C@H](Nc2ccc3ncc(-c4cnc(Nc5ccccn5)nc4)n3n2)CC1
**A:** 1.1

**Q:** Report logD, nothing else, for this molecule: Fc1cccnc1Nc1ccc(-c2cnc3ccc(N[C@H]4CC[C@H](N5CCCC5)CC4)nn23)cn1
**A:** 2.8

**Q:** Report logD, nothing else, for this molecule: Cc1ccc2ncc(-c3cnc(Nc4ncccc4F)nc3)n2n1
**A:** 2.5
